# EC50 per entry
Target: HCV NS5B C316Y mutant (Hepatitis C virus genotype 1b, UniProt Q9WMX2, C2735Y)
Construct: HCV NS5B C316Y or S365A mutant as indicated; expressed in transfected cells
Sequence (Q9WMX2 2420-3010 C2735Y): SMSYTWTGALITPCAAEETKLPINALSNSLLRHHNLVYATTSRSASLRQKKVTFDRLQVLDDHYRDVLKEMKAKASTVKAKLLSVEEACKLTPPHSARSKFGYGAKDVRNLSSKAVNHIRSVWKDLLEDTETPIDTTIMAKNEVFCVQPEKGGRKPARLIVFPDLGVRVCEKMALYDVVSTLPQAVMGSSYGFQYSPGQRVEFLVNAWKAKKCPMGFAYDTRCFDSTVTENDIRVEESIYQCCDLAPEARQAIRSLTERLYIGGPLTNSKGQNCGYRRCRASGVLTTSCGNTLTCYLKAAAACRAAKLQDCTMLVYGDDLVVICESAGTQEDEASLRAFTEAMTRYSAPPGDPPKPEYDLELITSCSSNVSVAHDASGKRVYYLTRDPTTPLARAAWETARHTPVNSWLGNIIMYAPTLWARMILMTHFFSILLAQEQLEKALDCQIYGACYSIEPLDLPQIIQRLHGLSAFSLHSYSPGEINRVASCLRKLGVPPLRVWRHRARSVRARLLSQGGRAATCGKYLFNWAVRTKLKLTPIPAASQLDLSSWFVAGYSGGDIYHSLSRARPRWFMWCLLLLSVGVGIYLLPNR
Experiment: Activity against HCV NS5B C316Y mutant
Format: cell-based
Conditions: read-out: Inhibiton of HCV NS5B C316Y mutant

# annotated cases, reported EC50 shown
CNC(=O)c1c(-c2ccc(F)cc2)oc2cc3c(cc12)[C@H](C)OC1(CC1)CN3S(C)(=O)=O (single isomer, unassigned); 0.2 to 1 µM
CNC(=O)c1c(-c2ccc(F)cc2)oc2cc3c(cc12)[C@H](C)OC(C)(C)CN3S(C)(=O)=O (single isomer, unassigned); > 1 µM
CNC(=O)c1c(-c2ccc(Oc3ccc(F)cc3)cc2)oc2cc3c(cc12)[C@H](C)OC(C)(C)CN3S(C)(=O)=O (single isomer, unassigned); 0.2 to 1 µM

For the next question, use this compound.
In: Quick check: EC50 on HCV NS5B C316Y mutant (Hepatitis C virus genotype 1b, UniProt Q9WMX2, C2735Y), item CNC(=O)c1c(-c2ccc(Oc3ccc(F)cc3)cc2)oc2cc3c(cc12)[C@H](C)OC1(CC1)CN3S(C)(=O)=O (single isomer, unassigned) ?
Out: > 1 µM
